# credit: ChEMBL document CHEMBL3137440

The entries below come with measured half-life values attached.
# testSummary: in vitro
# measurementContext: human, microsomes
Field format: number, assumed min, no unit text.

Some solved cases for reference:
| testSmiles | quantityKind | observedMeasurement |
| --- | --- | --- |
| N#Cc1ccc(N2CCC(N(c3ccc(C(F)(F)F)cc3)c3cccnc3)CC2)cc1 | half-life | 15.5 |
| Cc1noc(C)c1C(=O)N1CCC(N(c2ccc(C(F)(F)F)cc2)c2cccnc2)CC1 | half-life | 11.8 |
| CC(C)(C)CC(=O)N1CCC(N(c2ccc(Cl)cc2)c2cccnc2)CC1 | half-life | 9.9 |

Lookup: Please give the documented half-life of O=C(c1ccc(F)cc1)N1CCC(N(c2ccc(C(F)(F)F)cc2)c2cccnc2)CC1
Found: 13.2

Lookup: // Input: N#Cc1ccccc1N1CCC(N(c2ccc(C(F)(F)F)cc2)c2cccnc2)CC1 . Output its half-life only.
Found: 12.8

Lookup: Answer with the recorded half-life for the compound listed here: O=C(c1ccccc1)N1CCC(N(c2ccc(Cl)cc2)c2cccnc2)CC1
Found: 12.5

* * *

# Tested on: Trypanosoma cruzi
# testSummary: DNDI: Chagas in Vitro
# Type: functional, Tulahuen C4 (LacZ)
# measurementContext: Trypanosoma cruzi, Tulahuen C4 (LacZ)
List of IC90 values.
Lab book: enter the figure in nM, no units written.

Here is how some compounds turned out for IC90.
| testSmiles | IC90 / nM |
| --- | --- |
| Cc1ccccc1CN1CCC(N(c2ccc(C(F)(F)F)cc2)c2cccnc2)CC1 | 19 |
| O=C(c1ccccc1)N1CCC(N(c2ccc(C(F)(F)F)cc2)c2cccnc2)CC1 | 16.6 |
| FC(F)(F)c1ccc(N(c2cccnc2)C2CCN(Cc3ccccc3C(F)(F)F)CC2)cc1 | 36 |

Next compound, IC90 to be filled in.
Lookup: Please list IC90 recorded for the compound Cc1cccc(CN2CCC(N(c3ccc(C(F)(F)F)cc3)c3cccnc3)CC2)c1
Found: 79

* * *

Overview of recorded % inhibition for various compounds
# System: Leishmania donovani
# testSummary: DNDI: Inhibition of formation of Leishmania donovani
# Type: functional, MHOM/ET/67/L82
# Parameters: concentration or dose not given beside the values
# value in %; strip the unit string

Here are 3 compounds together with their reported answers.
| testSmiles | observedMeasurement |
| --- | --- |
| O=C(c1ccccc1C(F)(F)F)N1CCC(N(c2ccc(C(F)(F)F)cc2)c2cccnc2)CC1 | 66.3 |
| N#Cc1ccc(N(c2cccnc2)C2CCN(c3ccc(C(F)(F)F)cc3)CC2)cc1 | 28.1 |
| FC(F)(F)c1ccc(N2CCC(N(c3ccc(C(F)(F)F)cc3)c3cccnc3)CC2)cc1 | 38.5 |

Switching to the query record.
Lookup: Query % inhibition for FC(F)(F)c1ccc(N(c2cccnc2)C2CCN(c3ccc(C(F)(F)F)cn3)CC2)cc1
Found: 37.9

* * *

# testSummary: DNDI: Solubility in phosphate buffer at pH 6.5 determined by nephelometry
quantityKind: solubility kinetic

For orientation, consider the following solved cases.
| testSmiles | solubility kinetic |
| --- | --- |
| CN(C)S(=O)(=O)c1cccc(N2CCC(N(c3ccc(C(F)(F)F)cc3)c3cccnc3)CC2)c1 | < 1.6 µg/mL |
| N#Cc1ccc(N(c2cccnc2)C2CCN(c3ccc(F)c(F)c3)CC2)cc1 | < 1.6 µg/mL |

Lookup: Find the measured solubility kinetic of CS(=O)(=O)c1ccc(N2CCC(N(c3ccc(Cl)cc3)c3cccnc3)CC2)cc1 and report it.
Found: < 1.6 µg/mL

* * *

# testSummary: DNDI: Cytotoxicity against L-6 rat myoblasts from skeletal musclE
# measurementContext: L6 rat skeletal muscle myoblasts, IC50
quantityKind: IC50

Lookup: Quickly give me recorded IC50 for Cc1ccc(N2CCC(N(c3ccc(C(F)(F)F)cc3)c3cccnc3)CC2)cn1
Found: > 100 µM

Lookup: Output measured IC50 for this item: CC(C)(O)CN1CCC(N(c2ccc(C#N)cc2)c2cccnc2)CC1
Found: > 100 µM
